Experiment description: CMC (critical micelle concentration) from surface tension by the stalagmometric method
Format: physicochemical
Test settings: graph of surface tension versus sample concentration
Description: The surface tension values of steviol bisglycoside (rebaudioside A) and steviol monoglycoside-acid, ester, and amide obtained in Examples 1, 4, and 5 were measured and compared at various concentrations using the stalagmometric method. In addition, through a graph of surface tension versus sample concentration, CMC was measured to be 5.14 mM (rebaudioside A), 1.1 mM (Example 1, steviolbioside), 0.15 mM (Example 4, rebaudioside B methyl ester), and 0.5 mM (Example 5, rebaudioside B n-hexylamide).
Experimental readout: CMC (mM)
Write the number in mM without appending the unit.

Recorded CMC, per entry:
[
  {
    "Molecule": "C=C1C[C@@]23CC[C@H]4[C@@](C)(CCC[C@@]4(C)C(=O)OC)[C@@H]2CC[C@]1(O[C@@H]1O[C@H](CO)[C@@H](O)[C@H](O[C@@H]2O[C@H](CO)[C@@H](O)[C@H](O)[C@H]2O)[C@H]1O[C@@H]1O[C@H](CO)[C@@H](O)[C@H](O)[C@H]1O)C3 [Example 4, rebaudioside B methyl ester]",
    "Unit tag": "mM",
    "CMC": 0.15
  },
  {
    "Molecule": "C=C1C[C@@]23CC[C@H]4[C@@](C)(CCC[C@@]4(C)C(=O)O[C@@H]4O[C@H](CO)[C@@H](O)[C@H](O)[C@H]4O)[C@@H]2CC[C@]1(O[C@@H]1O[C@H](CO)[C@@H](O)[C@H](O[C@@H]2O[C@H](CO)[C@@H](O)[C@H](O)[C@H]2O)[C@H]1O[C@@H]1O[C@H](CO)[C@@H](O)[C@H](O)[C@H]1O)C3 [rebaudioside A, reference compound]",
    "Unit tag": "mM",
    "CMC": 5.14
  },
  {
    "Molecule": "C=C1C[C@@]23CC[C@H]4[C@@](C)(CCC[C@@]4(C)C(=O)O)[C@@H]2CC[C@]1(O[C@@H]1O[C@H](CO)[C@@H](O)[C@H](O)[C@H]1O[C@@H]1O[C@H](CO)[C@@H](O)[C@H](O)[C@H]1O)C3 [Example 1, steviolbioside]",
    "Unit tag": "mM",
    "CMC": 1.1
  }
]

Here is another molecule to look at.
Consider the molecule C=C1C[C@@]23CC[C@H]4[C@@](C)(CCC[C@@]4(C)C(=O)NCCCCCC)[C@@H]2CC[C@]1(O[C@@H]1O[C@H](CO)[C@@H](O)[C@H](O[C@@H]2O[C@H](CO)[C@@H](O)[C@H](O)[C@H]2O)[C@H]1O[C@@H]1O[C@H](CO)[C@@H](O)[C@H](O)[C@H]1O)C3 [Example 5, rebaudioside B n-hexylamide] and give its measured CMC.
0.5
